target: T1, rat IL-21R expressed on cells (rat); experiment: cell ELISA on transfected CHO cells, 13 nM IgG
T1 construct: whole, on cells; Transiently transfected CHO-PA-Dukx cells
Recorded A450 at 13 nM Ab in cell ELISA by entry
Please reply with the bare figure in A450 and do not write the unit itself.

AbL (antibody, human IgG1, V domains shown, Full-length human IgG1 / human lambda, transient, conditioned medium; Framework limits derived; also called VH3/VL13) VH: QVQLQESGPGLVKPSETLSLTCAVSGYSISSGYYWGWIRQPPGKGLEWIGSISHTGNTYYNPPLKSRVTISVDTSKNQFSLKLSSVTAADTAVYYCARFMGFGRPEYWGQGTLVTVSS VL: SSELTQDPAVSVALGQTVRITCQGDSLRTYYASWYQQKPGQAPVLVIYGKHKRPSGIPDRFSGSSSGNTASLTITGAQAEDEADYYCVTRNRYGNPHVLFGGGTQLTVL : 1.26

// moving on: another record for A450 at 13 nM Ab in cell ELISA
Would you mind telling me what A450 at 13 nM Ab in cell ELISA value was observed for AbU (antibody, human IgG1, V domains shown, Human IgG1 triple-mutant (L234A, L235A, G237A); Framework limits derived; also called VHP/VL25; VHPTM/VL25) VH: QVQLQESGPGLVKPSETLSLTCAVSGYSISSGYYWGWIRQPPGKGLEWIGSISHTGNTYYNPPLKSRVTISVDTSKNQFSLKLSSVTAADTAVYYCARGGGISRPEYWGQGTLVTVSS VL: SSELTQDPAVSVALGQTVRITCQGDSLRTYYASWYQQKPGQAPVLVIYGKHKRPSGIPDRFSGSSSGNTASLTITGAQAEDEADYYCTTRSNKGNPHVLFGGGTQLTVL ?
0.927
